Ref: ChEMBL document CHEMBL5131391

# inhibition of growth at 10 µM per record follows
test system: BT-549; test: Antiproliferative activity against human BT-549 cells assessed as growth inhibition at 10 uM measured after 48 hrs by NCI protocol based SRB assay relative to control; type: functional; settings: read-out: GI
EXPERIMENTAL ENDPOINT: inhibition of growth at 10 µM (%)

{"ENTRY SMILES": "N#Cc1c(-c2ccc(Cl)cc2)nc2c(c(-c3ccccc3)nn2-c2ccccc2)c1-c1ccc(O)cc1", "TEST TARGET": "BT-549", "EXPERIMENTAL VALUE": 38}
{"ENTRY SMILES": "N#Cc1c(-c2ccco2)nc2c(c(-c3ccccc3)nn2-c2ccccc2)c1-c1ccc(O)cc1", "TEST TARGET": "BT-549", "EXPERIMENTAL VALUE": 36}
{"ENTRY SMILES": "Cc1ccc(-c2nc3c(c(-c4ccccc4)nn3-c3ccccc3)c(-c3ccc(O)cc3)c2C#N)cc1", "TEST TARGET": "BT-549", "EXPERIMENTAL VALUE": 24}
{"ENTRY SMILES": "N#Cc1c(-c2ccccc2)nc2c(c(-c3ccccc3)nn2-c2ccccc2)c1-c1ccc(O)cc1", "TEST TARGET": "BT-549", "EXPERIMENTAL VALUE": 41}
